B1: CPEB3 Ribozyme (parent)
chain: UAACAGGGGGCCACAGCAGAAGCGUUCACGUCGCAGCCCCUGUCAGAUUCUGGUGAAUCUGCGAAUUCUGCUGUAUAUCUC

# Variants of: B1
# assay_notes: self-cleavage, relative activity (ratio to wild type); higher = more cleavage; in vitro, sequencing
self-cleavage values by entry
result_type: self-cleavage

1. UAACAGGGGGCCACAGCAGAAGCGUUCACGUCGCUGCCCCUGUCAGAUUCUGGUGAAUCUGCGAAUUCUGCUAUAUAUCUC [A35U G73A] | 0.88
2. UAACAGGGGGCCACAGCAGAAGCGUUCACGUCGCAGCCCCUGUCAGAUUCUGGUAAAUCUGCGAUUUCUGCUGUAUAUCUC [G55A A65U] | 0.27
3. UAACAGGGGGCCACAGCUGAAGCGUUCACGUCGCAGCCCCUGUCAGAUUCUGGUGAAUCUGCGAAUUCUGCUGUAUAACUC [A18U U78A] | 0.36
4. UAACAGGGGGCCACAGCAGAAACGUUCACGUCGCAGCCCCCGUCAGAUUCUGGUGAAUCUGCGAAUUCUGCUGUAUAUCUC [G22A U41C] | 0.37
5. UAACAGGGGGCCACAGCAGAAGCGUUCACGACGCAGCCCCUGUCAGAAUCUGGUGAAUCUGCGAAUUCUGCUGUAUAUCUC [U31A U48A] | 0.13
